Measured values drawn from ChEMBL document CHEMBL4041471 for this set.

test system: MCF7; assay: Cytotoxicity against human MCF7 cells at 20 to 25 uM measured after 48 hrs by SRB assay; format: functional, cell-based
Calls of active or inactive are those of the source. The rule behind the calls is not given here.
measuredEndpoint: Activity

> print(dat)
                                   molecule  measuredendpoint  recordedmeasurement
1  C[C@@H]1[C@H]2C[C@@]34COC(=O)[C@H]3CC=C[C@H]4[C@@]13C[C@H](C1=CC(O)OC1=O)O[C@H]3O2 (stereo partly drawn)          Activity             inactive
2  COc1ccc(-c2cc(=O)c3c(O)c(OC)c(OC)cc3o2)cc1O          Activity             inactive
3  COC1C=C([C@H]2C[C@]34[C@@H](O2)O[C@H](C[C@@]25COC(=O)[C@@H]2CC=C[C@H]53)[C@H]4C)C(=O)O1 (mixture of isomers)          Activity             inactive

----------
test system: HCT-15; assay: Cytotoxicity against human HCT15 cells at 20 to 25 uM measured after 48 hrs by SRB assay; assay type: functional, cell-based
Activity calls are given as the source filed them. The rule behind the calls is not given here.
measuredEndpoint: Activity

> print(dat)
                                   compound  measuredendpoint  recordedmeasurement
1  C[C@@H]1[C@H]2C[C@@]34COC(=O)[C@H]3CC=C[C@H]4[C@@]13C[C@H](c1ccoc1)O[C@H]3O2          Activity             inactive
2  C[C@@H]1[C@H]2C[C@@]34COC(=O)[C@@H]3CC=C[C@H]4[C@@]13C[C@H](c1ccoc1)O[C@H]3O2          Activity             inactive
3  C[C@@H]1[C@H]2C[C@@]34COC(=O)[C@@H]3CC=C[C@H]4[C@@]13C[C@H](C1=CC(O)OC1=O)O[C@H]3O2 (stereo partly drawn)          Activity             inactive
